# measured-target: T1, chimeric Leptin (Hu)-EPO (Mu) receptor presented by the 32D OBECA cell line (human; murine, UniProt P48357 22-839; P14753 250-507)
# T1 sequence (looked up): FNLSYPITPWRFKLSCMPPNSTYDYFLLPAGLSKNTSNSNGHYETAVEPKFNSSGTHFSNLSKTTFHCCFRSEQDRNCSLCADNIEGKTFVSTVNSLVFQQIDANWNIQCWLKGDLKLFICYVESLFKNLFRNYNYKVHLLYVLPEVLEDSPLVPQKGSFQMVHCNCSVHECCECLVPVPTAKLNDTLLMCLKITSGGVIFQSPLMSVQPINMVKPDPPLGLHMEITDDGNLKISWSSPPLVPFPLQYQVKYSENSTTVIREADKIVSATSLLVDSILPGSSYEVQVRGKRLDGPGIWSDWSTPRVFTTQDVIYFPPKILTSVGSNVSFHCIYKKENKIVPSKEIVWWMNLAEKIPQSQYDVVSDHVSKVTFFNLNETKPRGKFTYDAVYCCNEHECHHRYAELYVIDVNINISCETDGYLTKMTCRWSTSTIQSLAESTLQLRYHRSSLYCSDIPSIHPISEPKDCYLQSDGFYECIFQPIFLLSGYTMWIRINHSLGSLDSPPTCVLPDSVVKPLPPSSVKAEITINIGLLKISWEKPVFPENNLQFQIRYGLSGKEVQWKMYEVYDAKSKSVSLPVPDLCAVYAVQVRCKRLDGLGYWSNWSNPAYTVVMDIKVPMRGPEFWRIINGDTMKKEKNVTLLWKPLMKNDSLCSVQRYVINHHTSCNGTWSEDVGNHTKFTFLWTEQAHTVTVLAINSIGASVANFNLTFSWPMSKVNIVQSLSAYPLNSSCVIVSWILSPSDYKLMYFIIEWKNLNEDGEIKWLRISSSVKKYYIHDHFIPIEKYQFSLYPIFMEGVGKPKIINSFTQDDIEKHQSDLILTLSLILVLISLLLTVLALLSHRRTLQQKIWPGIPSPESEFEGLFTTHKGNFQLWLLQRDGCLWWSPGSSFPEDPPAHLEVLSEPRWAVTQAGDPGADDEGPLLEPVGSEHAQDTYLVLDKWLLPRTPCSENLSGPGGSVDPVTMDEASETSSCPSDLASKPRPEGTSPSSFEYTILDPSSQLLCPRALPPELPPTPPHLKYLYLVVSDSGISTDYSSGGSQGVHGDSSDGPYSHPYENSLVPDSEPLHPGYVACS
# experimental-details: cell-based or functional assay
# key: entry, value: EC50 (Obeca Stat 5 functional assay)
Kindly write the number and append the unit.

Seal leptin with N-terminal methionine, with amino acids 23-49 replaced with amino acids 25-51 (AB loop) of metreleptin, and with amino acids 120-141 replaced … (ligand, Seal-human chimeric leptin; also called Compound 40) MPIQRVQDDTKTLIKTIITRINDISHTQSVSSKQKVTGLDFIPGLHPILTLSGMDQILATYQQILTSLQSRSVVQIANDLANLRALLRLLASAKSCPVPRARGSDTIKGLGNVLRASVHSTEVVALSRLQGSLQDMLWQLDLNPGC	0.588 nM

Incoming: Note EC50 (Obeca Stat 5 functional assay) for the binder shown: Seal leptin with N-terminal methionine, with amino acids 71-92 replaced with amino acids 73-94 (helix 3) of metreleptin, and with amino acids 93-119 replaced … (ligand, Seal-human chimeric leptin; also called Compound 50) MPIQRVQDDTKTLIKTIITRINDISPPQGVCSRPRVAGLDFIPRVQSVRTLSGMDQILATYQQILTSLQSRNVIQISNDLENLRDLLHVLAFSKSCHLPWASGLETLDSLGGVLEASGYSTEVVALSRLKAALQDMLRQLDRNPGC
Outgoing: 0.022 nM

Incoming: Return the recorded EC50 (Obeca Stat 5 functional assay) value; entry: Seal leptin with N-terminal methionine, and with amino acids 120-141 replaced with amino acids 122-143 (helix 4) of metreleptin (ligand, Seal-human chimeric leptin; also called Compound 44) MPIQRVQDDTKTLIKTIITRINDISPPQGVCSRPRVAGLDFIPRVQSVRTLSGMDQILATYQQILTSLQSRSVVQIANDLANLRALLRLLASAKSCPVPRARGSDTIKGLGNVLRASVHSTEVVALSRLQGSLQDMLWQLDLNPGC
Outgoing: 0.032 nM

Incoming: Fill in reported EC50 (Obeca Stat 5 functional assay) for this entry: Seal leptin with N-terminal methionine, and with amino acids 30 and 71-92 replaced with amino acids 32 and 73-94 (helix 3) of metreleptin (ligand, Seal-human chimeric leptin; also called Compound 48; Cmpd 48) MPIQRVQDDTKTLIKTIITRINDISPPQGVSSRPRVAGLDFIPRVQSVRTLSGMDQILATYQQILTSLQSRNVIQISNDLENLRDLLHVLAFSKSCPVPRARGSDTIKGLGNVLRASVHSTEVVALSRLKAALQDMLRQLDRNPGC
Outgoing: 0.039 nM
